methodNotes: Intrinsic clearance in human liver microsomes
Format: ADME, Microsome
Output schema: class label derived from microsomal CLint. Mapping: zone 1: < 8 µL/min/mg; zone 2: ≥ 8 µL/min/mg and < 20 µL/min/mg; zone 3: ≥ 20 µL/min/mg

- smilesRecord: "CCS(=O)(=O)c1ccc2c(c1)nc(CC(C)(C)C)n2CC1CC1"
  class: "zone 2"
- smilesRecord: "CCCc1nc2cc(S(=O)(=O)CC)ccc2n1CC1CC1"
  class: "zone 3"
- smilesRecord: "CCS(=O)(=O)c1ccc2c(c1)nc(C(C)(C)C)n2C[C@@H]1CCCO1"
  class: "zone 2"
- smilesRecord: "CN(C)CCn1c(CC(C)(C)C)nc2cc(S(=O)(=O)CC(C)(C)O)ccc21"
  class: "zone 1"
- smilesRecord: "CC(C)(C)Cc1nc2cc(S(=O)(=O)C(C)(C)C)ccc2n1CC1CC1"
  class: "zone 3"
- smilesRecord: "CCS(=O)(=O)c1ccc2c(c1)nc(C1(C)CCCC1)n2CC1CC1"
  class: "zone 3"
- smilesRecord: "CCS(=O)(=O)c1ccc2c(c1)nc(C(C)(C)C)n2CCOC(F)(F)F"
  class: "zone 1"
- smilesRecord: "CCS(=O)(=O)c1ccc2c(c1)nc(C(C)(C)C)n2CC1CC1"
  class: "zone 2"
- smilesRecord: "CC(C)S(=O)(=O)c1ccc2c(c1)nc(CC(C)(C)C)n2CC1CC1"
  class: "zone 3"
